# System: 786-0 renal
# assay summary: NCI-60 one-dose screen, 48 h
# condition label: 10 µM
Compounds without any hit were thinned out: in the full panel of roughly 83,000, 20% have a hit. Calls of active or inactive are those of the source. The calls were made as follows: active = growth percent below 10; inactive = the rest.
Tick one outcome: YES = active, NO = inactive

Q. Identify the outcome logged in this assay for the compound shown: CN1C(=O)N(C)C2SC(N/N=C/C=C/c3ccccc3)=NC21 (stereo not given)
A. NO

Q. Which result was noted for this compound in the test: CCC(C)S(=O)(=O)c1oc(-c2ccc(C)cc2)nc1S(=O)(=O)c1ccccc1 (stereo not given)
A. YES

Q. Assay result, entry CC(=O)Nc1nc(-c2ccc(N3CCN(C)CC3)c(NS(=O)(=O)c3ccc(C(F)(F)F)cc3)c2)cs1 — outcome?
A. YES

Q. Record lookup: outcome of this test for Cc1ccc(-c2nc(Nc3ccc(S(N)(=O)=O)cc3)c3ccccc3n2)cc1 ?
A. NO

Q. Just curious, what result did Cc1noc2c(Cc3ccccc3)nn(CC(=O)N/N=C/c3ccc(F)cc3)c(=O)c12 get here?
A. YES

----------
# Test system: HCT-116 colon
# assay summary: NCI-60 one-dose screen, 48 h (100 = growth as untreated, 0 = no growth, -100 = all killed)
# condition label: 10 µM
Compounds without any hit were thinned out: in the full panel of roughly 83,000, 20% have a hit. The source made the active and inactive calls. How the source made its calls: active means growth percent below 10; inactive means the rest.
endpoint label: growth

Q. Identify the measured growth of O=C(CSc1nnc(-c2c[nH]c3ccccc23)n1-c1ccccc1)Nc1ccc(C(=O)/C=C/c2ccccc2Cl)cc1 for HCT-116 colon.
A. 22.1% (inactive)

Q. For HCT-116 colon, provide growth of Clc1ccc2c(N/N=C/c3c[nH]c4ccc(Br)cc34)ccnc2c1 please.
A. -10.3% (active)

Q. Kindly state the measured growth obtained for CN(C)c1cccc2c(S(=O)(=O)Nc3cccc(-c4csc(NC(=O)CCCCCN5CCN(c6cc7c(cc6F)C(=O)N(C6CCC(=O)NC6=O)C7=O)CC5)n4)c3)cccc12 (centres undefined) with HCT-116 colon.
A. 68.3% (inactive)

Q. # returns recorded growth (system: HCT-116 colon) for O=C(COc1ccc(NC(=O)Nc2ccc(Cl)cc2)cc1)N=Nc1c(O)[nH]c2ccc([N+](=O)[O-])cc12
A. -37.8% (active)

----------
# System: 786-0 renal
# assay summary: NCI-60 one-dose screen, 48 h (100 = growth as untreated, 0 = no growth, -100 = all killed)
# condition label: 10 µM
About 83,000 compounds went through this panel and 20% of them were active in at least one assay; those are over-represented in the sample as a whole. Active and inactive are the calls of the source. The calls were made as follows: active = growth percent below 10; inactive = the rest.
Kindly state growth for each of the entries shown.

Q. What value of measured growth is listed for O=C(CSc1nnc(-c2ccc3nc(-c4ccc(Cl)cc4)[nH]c3c2)o1)Nc1ccc(Cl)cc1 ?
A. -76.8% (active)

Q. Give the measured growth of COc1cc2c(cc1OC)CN(CCCCOc1cc(O)c3c(=O)cc(-c4ccccc4)oc3c1)CC2 .
A. 23.9% (inactive)

Q. Looking for the measured growth of Cc1cc(=O)oc2cc(OCCCCOc3ccc(/C=C/C(=O)Nc4ccccc4[N+](=O)[O-])cc3)ccc12 , can you help?
A. 111% (inactive)

Q. Reported growth, molecule N#Cc1ccc(-c2nn(-c3ccc(C(=O)O)cc3)cc2CNc2cc(Cl)cc(C(F)(F)F)c2)cc1 : ____
A. 11.5% (inactive)

Q. Which growth is reported for this molecule? CC(=O)C1=C(C)NC(SCC(=O)Nc2ccc(S(=O)(=O)Nc3cc(C)on3)cc2)=NC1c1ccccc1 (stereo not drawn)
A. 102% (inactive)

Q. I have this molecule here, C[C@H]1[C@H](C)CC[C@]2(COC(=O)CCC(=O)NCC#CCN3CCNCC3)CC[C@]3(C)C(=CC[C@@H]4[C@@]5(C)CCCNC(C)(C)[C@@H]5CC[C@]43C)[C@H]12 , and I need its recorded growth.
A. 55.1% (inactive)

Q. I have this molecule here, COc1cc2c3c(n(CCCn4ccnc4)c(=O)c2cc1OC)-c1nc2c(cc1C3=O)OCO2 , and I need its recorded growth.
A. 12.1% (inactive)

Q. Returns the measured growth for the input molecule. Input: CN1C(=O)/C(=C/c2ccc3ncsc3c2)NC1=NC12CC3CC(CC(O)(C3)C1)C2
A. 11.1% (inactive)

----------
# Tested on: LOX IMVI melanoma
# assay summary: NCI-60 one-dose screen, 48 h
# condition label: 10 µM
This is part of a sample that, as a whole, favours compounds with a hit. Of some 83,000 tested, about 20% had one in any assay. Active and inactive are the calls of the source. How the source made its calls: active means growth percent below 10; inactive means the rest.
Parameter call: string, one of active, inactive

Q. Dear colleague, could you share the recorded outcome for O=C(c1ccc(Cl)cc1)C1[C@H](c2ccc(Br)cc2)[C@@H](c2ccccc2)NC12C(=O)Nc1ccc(Br)cc12 (some centres not stated) when you have a moment?
A. active

Q. Any idea what this test logged for Nc1n[nH]c2cccc(C#Cc3cccc(NC(=O)Nc4cc(C(F)(F)F)cc(C(F)(F)F)c4)c3)c12 ?
A. active

Q. # outcome recorded in this test, key = Cc1ccc(-c2nc(Nc3ccccc3C(=O)O)c3ccccc3n2)cc1
A. active

Q. Just curious, what result did N#Cc1ccc(-c2nn(-c3ccc(C(=O)O)cc3)cc2CNc2ccc(Cl)cc2)cc1 get here?
A. inactive

Q. GET /call?item= C/C(=N\NC(N)=S)c1ccc(Nc2nc(SC(C)C)nc(-c3ccccc3)c2C#N)cc1 returns the recorded outcome of this test.
A. inactive

Q. Fill in: this test's call for COc1cc(NC(=O)c2cc(-c3ccc(F)cc3F)ccc2O)cc(OC)c1OC is ___
A. inactive

Q. Entry O=c1oc2ccc(-c3ccc(F)cc3F)cc2c(=O)n1-c1ccc(Cl)c(C(F)(F)F)c1 : call = ?
A. active

Q. Dear colleague, could you share the recorded outcome for COc1ccc(-c2ccc(SCC(=O)Nc3ccc(C#N)cc3)nn2)cc1 when you have a moment?
A. inactive

Q. GET /call?item= COc1ccc(NC(=O)CSc2nnc(-c3ccc4nc(-c5ccc(Cl)cc5)[nH]c4c3)o2)cc1 returns the recorded outcome of this test.
A. inactive

Q. How did this test come out for O=C(c1ccc(O)cc1)C1[C@H](c2ccc(Br)cc2)[C@@H](c2ccccc2)NC12C(=O)Nc1ccccc12 (some centres not stated) ?
A. active

Q. Please indicate how the test categorized N#Cc1ccc(-c2nn(-c3ccc(C(=O)O)cc3)cc2CNc2cc(Cl)cc(C(F)(F)F)c2)cc1 .
A. active

Q. Any idea what this test logged for Nc1nc(Nc2ccc(Cl)cc2)nn1Cc1cccc(Br)c1 ?
A. inactive

Q. Tell me the recorded outcome of this test for CN(C)c1ccc(/C=C/c2nc3ccccc3c(=O)n2CC(=O)Nc2ccc(Cl)cc2)cc1 .
A. active

Q. # fetch the recorded call for COc1ccc(/C=C/C(=O)c2ccc(N3CCN(C)CC3)cc2)c(C(F)(F)F)c1 here
A. active

Q. Kindly provide the recorded test outcome for the following molecule: COc1ccc(C(=O)/C=C/c2cc(C(F)(F)F)cc(C(F)(F)F)c2)cc1S(N)(=O)=O
A. active

Q. Please indicate how the test categorized CS(=O)(=O)Nc1ccc(-c2ccc3c(c2)ncn3-c2ccc(NC(=O)Nc3ccc(Cl)c(C(F)(F)F)c3)cc2)cc1 .
A. active

Q. So what was the verdict on O=C1CCC(N2Cc3c(NCc4ccc(-c5ccccc5)cc4)cccc3C2=O)C(=O)N1 (configuration not stated) in this test?
A. inactive

Q. Status in this test for CC(C)(C)c1ccc(NCc2cn(-c3ccc(C(=O)O)cc3)nc2-c2ccc(C#N)cc2)cc1 ?
A. inactive

Q. Check the results log: what was the call for COc1ccc(-c2c(N)c(=O)n(C)c3ccccc23)cc1 ?
A. inactive

Q. Each molecule tested received a call. Report the one for CSc1nc(-c2cccc(C)c2)c2cc(-c3ccccc3)n(C)c2n1 .
A. inactive

Q. Record request — test call for O=C1Nc2cc(Cl)ccc2/C1=C/c1cccc(OCc2ccc(Br)cc2F)c1
A. active

Q. Outcome? CN1C/C(=C\c2ccc(O)cc2O)c2[o+]c3cc(O)ccc3cc2C1
A. active

Q. Tell me the assay call for N#Cc1c(NC(=O)c2ccc(C(F)(F)F)cc2)sc2c1CCC(O)=C2 please.
A. inactive

Q. Assay result, entry CN1CCN(Cc2ccc(C(=O)Nc3cccc(Nc4ccc5c(O)cccc5n4)c3)cc2C(F)(F)F)CC1 — outcome?
A. active

Q. In this assay, the call recorded for CCCCSc1nc(Nc2ccc(/C(C)=N/NC(N)=S)cc2)c(C#N)c(-c2ccc(OC)cc2)n1 was what?
A. active

Q. What classification did CCNCCCn1c2c(c3cc(OC)c(OC)cc3c1=O)C(=O)c1cc3c(nc1-2)OCO3 end up with in this test?
A. active

Q. Would you mind telling me which call this test gave CCOC(=O)C1=C(N)N(c2ccc(C)cc2)C2=C(C(=O)CC(C)(C)C2)C1c1ccccc1OC (configuration not stated) ?
A. inactive

Q. Given Cc1ccc2nc(-c3ccc(-c4nnc(SCC(=O)Nc5ccc(Br)cc5)o4)cc3)[nH]c2c1 , state the outcome it received in this test.
A. active

Q. Which outcome did this test record for the molecule CCOC(=O)c1sc(N/N=C(\C)c2ccc3c(c2)Nc2ccccc2S3)nc1C ?
A. active

Q. For N#Cc1c(-c2ccc(F)cc2)nc(SCc2ccc([N+](=O)[O-])cc2)nc1N1CCOCC1 , which call appears in the assay record?
A. inactive

Q. Recorded call for CC1(c2ccccc2)NC(=O)N(CC(=O)Nc2ccc(C(=O)/C=C/c3ccc(Br)cc3)cc2)C1=O (configuration not stated) ?
A. active

Q. // param item: CCCn1c(=O)c2[nH]c(-c3ccc(OCc4nc5ccc(F)cc5[nH]4)cc3)nc2n(CCC)c1=O ; yields the recorded call
A. active

Q. Which outcome was assigned to CCOP(=O)(OCC)O[C@H]1CCC(=O)[C@@H]2[C@H]1[C@H]1C[C@@H]3[C@@]4(C)CCCC(C)(C(=O)OC)[C@@H]4CC[C@@]23C=C1C(C)C (some centres not stated) in this test?
A. inactive

Q. What was the test verdict on O=C(c1ccc(O)cc1)C1[C@H](c2ccccc2Br)[C@@H](c2ccccc2)NC12C(=O)Nc1ccc(Br)cc12 (some centres not stated) ?
A. inactive

Q. What classification did COc1ccc(-c2cc(C(=O)N=Nc3c(O)[nH]c4ccc(F)cc34)c3ccccc3n2)cc1 end up with in this test?
A. inactive

Q. How did this test come out for COc1ccc(-c2cc(-c3cc(C(=O)c4ccccc4)n4ccc(C)cc34)nc(N)c2C#N)cc1 ?
A. inactive

Q. Any idea what this test logged for O=C(NO)c1ccc(CNc2nc(-c3ccccc3)c3ccccc3n2)cc1 ?
A. active
